Consider the following compounds; for each one, report its inhibition.
target: Prolyl endopeptidase-like (Mus musculus)
test protocol: purified PREPL inhibitors, PREPL inhibitor project, biochemical, gel-based competitive ABPP, fluorescence, HTS hits (AID 624481)
experimental context: at 20 µM, active compounds read high
Give bare numbers, in %.

Past entries and their recorded results:
O=C(C1=C[C@@H](c2ccc(Br)cc2)C[C@@H](OCc2ccc(CO)cc2)O1)N1CCOCC1 | -26
O=C(CSc1ccccc1F)Nc1ccc(N2CCOCC2)cc1 | -55
CCc1ccc(Nc2n[n+](-c3ccccc3)c(-c3ccc(N(CC)CC)cc3)s2)cc1 | -100
Cc1ccc2c(CC(=O)Nc3ccc(N4CCN(C)CC4)cc3C)coc2c1 | -3
CCn1c2ccccc2c2cc(CNCc3ccc(OC)cc3OC)ccc21 | -93

Batch request: inhibition per item, same order as input.
1. C#CCOCCOCCOCCNc1nc(N2CCN(C(=O)CCCCCCCCCCNC(=O)Cn3cc(CCCCCN)nn3)CC2)nc(N2CCN(C(=O)CCCCCCCCCCNC(=O)[C@H](CO)n3cc(CCCCCN)nn3)CC2)n1
2. CN1CCc2c(sc3c2C(=O)NC(c2cn(Cc4ccccc4)c4ccccc24)N3)C1 (centres undefined)
3. Oc1ccc(Nc2nc(N3CCCC3)c3ccccc3n2)cc1
4. O=C(c1ccccc1)N1CCN(c2ccc(NCc3ccc4c(c3)OCO4)cc2)CC1

1: -38; 2: 7; 3: -60; 4: -17
